Here, each record is paired with measured self-cleavage kobs at 40 uM GlcN6P data.
B1: glmS ribozyme (parent)
chain: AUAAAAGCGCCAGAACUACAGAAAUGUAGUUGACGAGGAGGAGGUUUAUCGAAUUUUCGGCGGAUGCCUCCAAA

# Variants of: B1
# measurementProtocol: self-cleavage kobs at 40 uM GlcN6P; higher = faster cleavage; RNA array
# conditions: with glucosamine-6-phosphate
Fewer inactive variants are shown than the library holds.

G43U G59A: < 1e-05 s⁻¹

Please look up its self-cleavage kobs at 40 uM GlcN6P: A39U G59C < 1e-05 s⁻¹

Now the variant G32C A53U G66U < 1e-05 s⁻¹

Now the variant A6C G37A G41A A42U < 1e-05 s⁻¹

Now the variant C10G G32U A53G C58G G60C < 1e-05 s⁻¹

Now the variant C10G C34U G38C A64C C67U < 1e-05 s⁻¹

Now the variant C34U U55A G60U < 1e-05 s⁻¹

Now the variant A6U G13C < 1e-05 s⁻¹

Now the variant A36C G44U U54G G66A C71A < 1e-05 s⁻¹

Now the variant U45G U54C 0.000233 s⁻¹

Now the variant C16A C34A < 1e-05 s⁻¹

Now the variant A14C C71U 0.000147 s⁻¹

Now the variant C10A A64U < 1e-05 s⁻¹

Now the variant G60A G66U < 1e-05 s⁻¹

Now the variant G40A U54A 0.000696 s⁻¹

Now the variant C10A U65G < 1e-05 s⁻¹

Now the variant A12G A36C < 1e-05 s⁻¹

Now the variant G7A C11G U69A 0.000101 s⁻¹

Now the variant A6G G38U U54C < 1e-05 s⁻¹

Now the variant C11G U45A < 1e-05 s⁻¹

Now the variant G40A U57G < 1e-05 s⁻¹

Now the variant U30C U57C < 1e-05 s⁻¹

Now the variant U55A A64U C68U < 1e-05 s⁻¹

Now the variant A42G U55A G63C < 1e-05 s⁻¹

Now the variant G32U G41A G66C C68G < 1e-05 s⁻¹

Now the variant U31C C34U U65C < 1e-05 s⁻¹

Now the variant A12G A48G G63A A64G < 1e-05 s⁻¹
